The measurements presented in this section are drawn from patent US8734776B2.

System: encephelomyocarditis virus
Assay: Antiviral assay: cytopathic effect in L929 cells
Format: cell-based, mouse
Conditions: relative CM conc. .008X
Recorded metric: Percentage Cytopathic Effect

See these solved cases before continuing.
Molecule	Percentage Cytopathic Effect
IL-28A: human IL-28A, previously designated zcyto20, SEQ ID NO:2 (protein, listed as Homo sapiens, SIGNAL (1)...(25)) MKLDMTGDCTPVLVLMAAVLTVTGAVPVARLHGALPDARGCHIAQFKSLSPQELQAFKRAKDALEESLLLKDCRCHSRLFPRTWDLRQLQVRERPMALEAELALTLKVLEATADTDPALVDVLDQPLHTLHHILSQFRACIQPQPTAGPRTRGRLHHWLYRLQEAPKKESPGCLEASVTFNLFRLLTRDLNCVASGDLCV	87%
zcyto24: mouse IL-28, SEQ ID NO:8 (protein, listed as Mus musculus, SIGNAL (1)...(28)) MKPETAGGHMLLLLLPLLLAAVLTRTQADPVPRATRLPVEAKDCHIAQFKSLSPKELQAFKKAKDAIEKRLLEKDLRCSSHLFPRAWDLKQLQVQERPKALQAEVALTLKVWENMTDSALATILGQPLHTLSHIHSQLQTCTQLQATAEPRSPSRRLSRWLHRLQEAQSKETPGCLEASVTSNLFRLLTRDLKCVANGDQCV	87%

Attention now turns to another entry.
Requested read-out: Percentage Cytopathic Effect. Entry: IL-28B: human IL-28B, previously designated zcyto22, SEQ ID NO:6 (protein, listed as Homo sapiens, SIGNAL (1)...(25)) MKLDMTGDCMPVLVLMAAVLTVTGAVPVARLRGALPDARGCHIAQFKSLSPQELQAFKRAKDALEESLLLKDCKCRSRLFPRTWDLRQLQVRERPVALEAELALTLKVLEATADTDPALGDVLDQPLHTLHHILSQLRACIQPQPTAGPRTRGRLHHWLHRLQEAPKKESPGCLEASVTFNLFRLLTRDLNCVASGDLCV
87%
